Source of measurements: patent US20240400677A1

Target: T1, Cynomolgus Monkey SIRPγ (plate-coated extracellular domain)
T1 construct: also called Cyno SIRPγ
T1 extracellular domain: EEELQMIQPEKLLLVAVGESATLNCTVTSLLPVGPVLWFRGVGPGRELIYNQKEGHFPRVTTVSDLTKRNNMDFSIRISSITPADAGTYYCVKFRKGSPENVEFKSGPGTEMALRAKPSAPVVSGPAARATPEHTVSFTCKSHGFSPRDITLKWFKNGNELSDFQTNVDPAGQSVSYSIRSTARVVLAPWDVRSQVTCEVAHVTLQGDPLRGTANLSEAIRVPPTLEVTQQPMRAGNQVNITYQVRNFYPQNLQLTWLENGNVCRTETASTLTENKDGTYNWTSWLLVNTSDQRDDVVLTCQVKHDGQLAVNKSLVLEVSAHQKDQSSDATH
Assay: ELISA, coated SIRP ECD (2 µg/mL), anti-human IgG, luminescence
Experimental: Selected hybridoma supernatants of Example 1 were tested for binding to human SIRPγ, cynomolgus monkey SIRPγ, human SIRPα V1, cynomolgus monkey SIRPα, human SIRPβ1, and cynomolgus monkey SIRPβ1 by enzyme-linked immunosorbent assay (ELISA). […] The antibodies were detected by an anti-rat antibody and a chemiluminescent substrate. […] The data depict the relative luminescence units read by a plate-reader capable of detecting chemiluminescence. […]
# EC50 (read off the curve) per entry

Worked examples, 2 binders total:
| BINDER | EC50 (read off the curve) |
| --- | --- |
| Antibody 80 (antibody, V domains shown) VH: QVQLVQSGAEVKKPGASVKVSCKASGYTFTRYDINWVRQAPGQGLEWMGWMNPNSGNTGYAQKLQGRVTMTRDTSTSTVYMELSSLRSEDTAVYYCARERVGYCSSTSCLHPLDYWGQGTLVTVSS VL: DIQMTQSPSSLSASVGDRVTITCRASQGIRNDLGWYQQKPGKAPKLLIYSASNLQSGVPSRFSGSGSGTDFTLTISSLQPEDFATYYCQQSYDVPLTFGGGTKVEIK | ~0.05 mg/L |
| Antibody 58 (antibody, V domains shown) VH: QVQLVQSGAEVKKPGASVKVSCKASGYTFTAYYMHWVRQAPGQGLEWMGIINPSGGSTSYAQKFQGRVTMTRDTSTSTVYMELSSLRSEDTAVYYCARDSGWYAPGYYYGMDVWGQGTTVTVSS VL: DIQMTQSPSSLSASVGDRVTITCRASESISHWLAWYQQKPGKAPKLLIYGASTLQSGVPSRFSGSGSGTDFTLTISSLQPEDFATYYCQQSYTPPLTFGGGTKVEIK | ~0.1 mg/L |

Now examine the next entry.
Asked: Name the recorded EC50 (read off the curve) of the binder listed here: Antibody 66 (antibody, V domains shown) VH: QVQLVQSGAEVKKPGASVKVSCKASGGTFSSYAISWVRQAPGQGLEWMGIINPSSSSTGYAQKFQGRVTMTRDTSTSTVYMELSSLRSEDTAVYYCARAGYYDSSGYYYSPYYGMDVWGQGTTVTVSS VL: EIVMTQSPATLSVSPGERATLSCRASQSISGSYLAWYQQKPGQAPRLLIYGASTRATGIPARFSGSGSGTEFTLTISSLQSEDFAVYYCQQYGSFPFTFGPGTKVDIK
Given back: ~0.1 mg/L
